- Assay Notes: drug combination growth inhibition, ovarian cancer – cell-based, oncology-focused library, rucaparib conditional, profiling panel (AID 1508598)
- Condition Label: patient-derived ovarian cancer cells, CellTiter-Glo viability, 144 h; at 1.25 µM; OCI-P5x cells; with rucaparib 20 µM; 100% = cells with rucaparib alone
Activity calls are given as the source filed them.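 How the source made its calls: active means normalized viability below 100% at a tested concentration; inactive means the rest.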
Valid outcomes are listed here; reply with one: Y (active), N (inactive)

Answered cases to consult:
- Compound: "CC(C)(C)c1cnc(CSc2cnc(NC(=O)C3CCNCC3)s2)o1"
  Class Assignment: "Y"
- Compound: "CN1CCN(c2ccc3nc(-c4c(N)c5c(F)cccc5[nH]c4=O)[nH]c3c2)CC1"
  Class Assignment: "N"

Lab log entry: C/C(=C\C(=O)Nc1ccccc1C(=O)O)c1ccc2ccccc2c1 — outcome as called in the assay?
N

// repeat for CCCS(=O)(=O)Nc1ccc(F)c(C(=O)c2c[nH]c3ncc(-c4ccc(Cl)cc4)cc23)c1F and report
Y

---

- Assay Notes: JHH-DIPG-1 glioma cell viability, MIPE5.0 library, CellTiter-Glo luminescence, qHTS (AID 1347067);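 further: cells exposed to compound for 48 hours before readout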
- Condition Label: JHH-DIPG-1 glioma viability, CellTiter-Glo ATP luminescence
Records with an inconclusive call do not appear. Active and inactive are the calls of the source. The limit is not given here; nearly all actives have AC50 up to about 26 µM.
Endpoint Label: AC50

Past entries and their recorded results:
- Compound: "CC#CC(=O)N1CCC[C@H]1c1nc(-c2ccc(C(=O)Nc3ccccn3)cc2)c2c(N)nccn12"
  AC50: "inactive"
- Compound: "CCCC1(CCC)CCC2(CCN(CCCN(CC)CC)C2)CC1"
  AC50: "3.72 µM (active)"
- Compound: "CN1CCN(c2ccc3nc(-c4c(N)c5c(F)cccc5[nH]c4=O)[nH]c3c2)CC1"
  AC50: "11.8 µM (active)"
- Compound: "CC(C)Nc1cc(-c2c[nH]c(C(=O)N[C@H](CO)c3cccc(Cl)c3)c2)c(Cl)cn1"
  AC50: "1.66 µM (active)"
- Compound: "CCN(C)S(=O)(=O)Nc1ccc(F)c(C(=O)c2c[nH]c3ncc(-c4cnc(C5CC5)nc4)cc23)c1F"
  AC50: "16.6 µM (active)"

Kindly review the next compound as well.
Report AC50 for COc1ccc2c(Oc3ccc(NC(=O)c4c(C)n(CC(C)(C)O)n(-c5ccccc5)c4=O)cc3F)ccnc2c1 please.
20.9 µM (active)

---

- Assay Notes: viability loss in pontine glioma line – cell-based, SU-DIPG-XVII, MIPE5.0, CellTiter-Glo, qHTS, dose response (AID 1347060);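 on AC50: cells exposed to compound for 48 hours before viability readout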
- Condition Label: CellTiter-Glo ATP luminescence
Records with an inconclusive call do not appear. Active and inactive are the calls of the source. The limit is not given here; nearly all actives have AC50 up to about 26 µM.
Lab note: assign the record to one of t (active), f (inactive)

Which outcome was assigned to COc1ccc(C(=O)N2CCN(C(=O)/C=C/c3ccc(Br)cc3)CC2)cc1 in this test?
f

Now the same for N#Cc1c(NC(=O)c2cccc3ccccc23)sc2c1CCCC2
t

And what about the compound CN(C)CCNC(=O)COc1c2cccc1Cc1cccc(c1OCC(=O)NCCN(C)C)Cc1cccc(c1OCC(=O)NCCN(C)C)Cc1cccc(c1OCC(=O)NCCN(C)C)C2 ?
f

Request: CC(=O)Nc1ccc(C(=O)NC(C)(C)C)cc1
f

Try this compound next: CC(C)C[C@H](NC(=O)CNC(=O)c1cc(Cl)ccc1Cl)B1OC(=O)CC(CC(=O)O)(C(=O)O)O1 (stereo not given in full)
t
